Cited source for all entries: ChEMBL document CHEMBL1201862

Tested on: KM12
assay summary: NCI tumour cell line growth inhibition, 48 h
Active and inactive are the calls of the source. Rule as the data show it: active = GI50 up to about 1.1 µM and inactive = higher.
measured quantity: GI50

### Prompt // Input: C=CCC1=C2CCCCC2CCC1=O (stereo not given) . Output its GI50 only.
### Response > 100 µM (inactive)

### Prompt // Input: COc1ccc(-c2c(N)n(-c3nc4ccccc4s3)c(=O)c3cc([N+](=O)[O-])ccc23)cc1 . Output its GI50 only.
### Response 18.6 µM (inactive)

====

Measured GI50, listed per entry for reference.
Test system: K562
assay summary: NCI tumour cell line growth inhibition, 48 h
Active and inactive are the calls of the source. No stated cut-off is given here; in the data, active = GI50 up to about 1.1 µM and inactive = higher.

Answered cases to consult:
CC1=NN(C(=O)CC(=O)Nc2ccccc2C)C(=O)C1/N=N\c1ccc(S(=O)(=O)c2ccc(/N=N/C3C(=O)N(C(=O)CC(=O)Nc4ccccc4C)N=C3C)cc2)cc1 (centres undefined); > 100 µM (inactive)
N#C[C@H](C(=O)c1ccccc1F)c1nc2ccccc2[nH]1; > 100 µM (inactive)
Cc1ccc(S(=O)(=O)N/N=C(\c2nc3ccc([N+](=O)[O-])cc3[nH]c2=O)C(O)c2ccc([N+](=O)[O-])cc2)cc1 (centres undefined); 29.2 µM (inactive)

### Prompt // Input: COC1(OC)C2(Cl)CCC1(Cl)C(OC(C)=O)C2 (centres undefined) . Output its GI50 only.
### Response > 100 µM (inactive)

====

Test system: ACHN
assay summary: NCI tumour cell line growth inhibition, 48 h
Calls of active or inactive are those of the source. Rule as the data show it: active = GI50 up to about 1.1 µM and inactive = higher.
measured quantity: GI50

Answered cases to consult:
O=C1CNNC(CSc2nc3ccc(I)cc3c(=O)n2Cc2ccccc2)=N1; 16.3 µM (inactive)
COc1ccc2nc3cc([N+](=O)[O-])ccc3c(Nc3ccc(S(=O)(=O)N=C(N)N)cc3)c2c1; 40.9 µM (inactive)
CCOC(=O)CCc1ccc(NC(=O)/C=C/c2ccc([N+](=O)[O-])o2)cc1; 1.34 µM (inactive)
Oc1c(Br)cc(/C=C/c2ccnc(/C=C/c3cc(Br)c(O)c(Br)c3)c2)cc1Br; 28.4 µM (inactive)

// moving on: another record for GI50
### Prompt // Input: O=[N+]([O-])c1ccc(-n2nc3ccc4c(no[n+]4[O-])c3n2)cc1 . Output its GI50 only.
### Response 7.11 µM (inactive)

====

Test system: NCI-H460
assay summary: NCI tumour cell line growth inhibition, 48 h
Calls of active or inactive are those of the source. No stated cut-off is given here; in the data, active = GI50 up to about 1.1 µM and inactive = higher.
# output must be one of active, inactive

Nc1cc2c(nc3c4ccccc4c(N)cc3[n+]2-c2cccc3ccccc23)c2ccccc12.Nc1cc2c(nc3c4ccccc4ccc3[n+]2-c2cccc3ccccc23)c2ccccc12; active
O=C(O)c1ccc(NS(=O)(=O)Cc2ccccc2)cc1; inactive
O=C1OC(=O)C2C3CCC(O3)C12 (centres undefined); inactive
COc1ccc(/C=C/C(=O)c2c(-c3ccccc3)nn(C)c(=O)c2N2CC2C)cc1 (centres undefined); inactive
CCOC(=O)C(C(=S)SC)c1nn2c(=O)cc(C)nc2s1 (centres undefined); inactive

### Prompt Identify the outcome logged in this assay for the compound shown: CC1=NN(C(=O)CC(=O)Nc2ccccc2C)C(=O)C1/N=N\c1ccc(S(=O)(=O)c2ccc(/N=N/C3C(=O)N(C(=O)CC(=O)Nc4ccccc4C)N=C3C)cc2)cc1 (centres undefined)
### Response inactive

### Prompt Identify the outcome logged in this assay for the compound shown: CS(=O)(=O)OCCN1CCN(C(=O)c2cccc3c(Nc4ccc(S(=O)(=O)N=C(N)N)cc4)c4ccccc4nc23)CC1
### Response inactive

### Prompt Identify the outcome logged in this assay for the compound shown: Cc1ccc2c(c1)Sc1ccc(/N=N/N(C)C)cc1N2C
### Response inactive

### Prompt Identify the outcome logged in this assay for the compound shown: CC(C)(C)c1ccc(OC(=O)Nc2ccc(O)c(C(=O)O)c2)cc1
### Response inactive

====

Tested on: M14
assay summary: NCI tumour cell line growth inhibition, 48 h
Activity calls are given as the source filed them. No stated cut-off is given here; in the data, active = GI50 up to about 1.1 µM and inactive = higher.
# output must be one of active, inactive

### Prompt Identify the outcome logged in this assay for the molecule shown: OC(CCN1CCCCC1)(c1ccccc1)c1ccccc1
### Response inactive

====

Tested on: ACHN
assay summary: NCI tumour cell line growth inhibition, 48 h
Calls of active or inactive are those of the source. Rule as the data show it: active = GI50 up to about 1.1 µM and inactive = higher.
# output must be one of Y (active), N (inactive)

Record excerpt, results attached:
CCN(CC)CCCNc1nccc2c(C)c3c(cc12)c1cnccc1n3C; Y
CCSC(=O)/C=C1\CN(C(=O)OC(C)(C)C)C1C(=O)OC(C)(C)C (stereo not given); N
Clc1cc(Cl)cc(Nc2nc3ccccc3nc2-c2cccs2)c1; N
COc1ccc(C(OCC2OC3(COC(c4ccccc4)(c4ccc(OC)cc4)c4ccc(OC)cc4)C(Oc4nc(=O)ccn43)C2O)(c2ccccc2)c2ccc(OC)cc2)cc1 (stereo not given); N
Cn1ncc2c(NCc3ccccc3)ncnc21; N
OC(c1ccccn1)C1CNc2ccccc21 (stereo not given); N
COc1cc2c3cc1Oc1c(OC)c(OC)cc4c1C(Cc1ccc(O)c(c1)Oc1ccc(cc1)CC3N(C)CC2)CN(C)C4 (stereo not given); N
COC(=O)C(=O)c1cc2ccccc2n1S(=O)(=O)c1ccccc1; N

### Prompt Identify the outcome logged in this assay for the compound shown: CC(=O)N1c2ccccc2C23CCN4CC5=CCOC(O)C(C5CC42)C13 (stereo not given)
### Response N

### Prompt Identify the outcome logged in this assay for the compound shown: CCN(CC)c1ccc2cc(-c3nc4ccccc4n3C)c(=O)oc2c1
### Response N

====

System: UACC-257
assay summary: NCI tumour cell line growth inhibition, 48 h
The source made the active and inactive calls. Cut-off read from the data, not from the text of the source: active = GI50 up to about 1.1 µM and inactive = higher.
measured quantity: GI50

Answered cases to consult:
CCc1ccccc1N1CCN(C(=O)c2cc(OC)c(OC)c(OC)c2)CC1; 0.0247 µM (active)
C/C(=C/CNc1ncnc2c1ncn2CCC(=O)O)CO; > 100 µM (inactive)
Cc1nc2c(=O)n3c4c(cccc4c2o1)CCC3; > 100 µM (inactive)

### Prompt // Input: COC(=O)C(=O)c1cc2ccccc2n1S(=O)(=O)c1ccccc1 . Output its GI50 only.
### Response > 100 µM (inactive)

====

Measured GI50, listed per entry for reference.
Test system: HOP-62
assay summary: NCI tumour cell line growth inhibition, 48 h
Active and inactive are the calls of the source. No stated cut-off is given here; in the data, active = GI50 up to about 1.1 µM and inactive = higher.

Answered cases to consult:
CCOC(=O)c1nc2ccccc2nc1Nc1ccc(OC)cc1; 15 µM (inactive)
COC(=O)C(CC(C)=O)CS(=O)(=O)CC(=O)C(=O)Nc1cccc([N+](=O)[O-])c1 (stereo unspecified); > 100 µM (inactive)
CS/C(=N\C(=S)Nc1ccccc1)Nc1ccccc1; 27.9 µM (inactive)
CN(C)CCCN1CCC2(CCC(C(C)(C)C)CC2)CC1; 2.15 µM (inactive)
CN(C)CCCNc1nnc(NCCCN(C)C)c2c(=O)c3sccc3[nH]c12; 5.77 µM (inactive)

// moving on: another record for GI50
### Prompt // Input: COc1cc(CCC(=O)NS(=O)(=O)c2ccccc2)cc(OC)c1OC . Output its GI50 only.
### Response > 100 µM (inactive)

====

Test system: A498
assay summary: NCI tumour cell line growth inhibition, 48 h
Activity calls are given as the source filed them. No stated cut-off is given here; in the data, active = GI50 up to about 1.1 µM and inactive = higher.
# output must be one of true = active, false = inactive

Record excerpt, results attached:
CCOC(=O)c1c(C)[n+]([O-])c2cc(Cl)c(Cl)cc2[n+]1[O-]; false
COc1cc(C(=O)NC2CCc3cc(OC)c(OC)c(OC)c3-c3ccc(OC)c(=O)cc32)cc(OC)c1OC (centres undefined); true
Nc1c2c(nc3ccccc13)-c1ccccc1CCC2; false
CC1=NN(C(=O)CC(=O)N(C(=O)c2ccccc2)c2ccc(Cl)cc2)C(=O)C1/N=N/c1ccc([N+](=O)[O-])cc1 (centres undefined); false
O=c1[nH]c(=O)n(COCCO)c2ccc(Br)cc12; false

### Prompt Identify the outcome logged in this assay for the compound shown: O=c1oc2ccccc2cc1-c1csc(Nc2cc(Cl)cc(Cl)c2)n1
### Response false

### Prompt Identify the outcome logged in this assay for the compound shown: O=c1c2ccc(Cl)cc2oc2c(CSc3ccccc3)cccc12
### Response false

### Prompt Identify the outcome logged in this assay for the compound shown: COc1cc(Cc2cc3c(c(C(=O)O)c2Br)OCO3)cc(OC)c1OC
### Response false

### Prompt Identify the outcome logged in this assay for the compound shown: CC(SC(=S)N1CCOCC1)C(=O)Nc1nnc(-c2ccc(Cl)cc2)o1 (centres undefined)
### Response false

### Prompt Identify the outcome logged in this assay for the compound shown: NC(=O)c1csc(C2OC(COP(=O)(O)CP(=O)(O)OCC3OC(n4cnc5c(N)ncnc54)C(O)C3O)C(O)C2O)n1 (centres undefined)
### Response false

### Prompt Identify the outcome logged in this assay for the compound shown: O=C1C2=C(C(=O)c3c(O)ccc(O)c31)[C@@H](O)[C@@H](O)[C@@H](O)C2
### Response false

### Prompt Identify the outcome logged in this assay for the compound shown: CC(=O)NC(CCCCNC(=O)N(C)N=O)C(=O)NCc1ccccc1 (centres undefined)
### Response false
